# Test details: solubility at pH 7.4
# Format: physicochemical
# Stated conditions: buffer
Recorded solubility, one value per entry.

Compound | Uom | solubility
CC(C)=CCN(c1ccc(OCc2ccccc2)cc1)C1CCN(C(=O)[C@@H](N)CC(C)C)CC1 | µM | 87
CC(C)C[C@H](NC(=O)N1CCCCCC1)C(=O)N1CCC(N(CCC(C)O)c2ccc(OCc3ccccc3)cc2)CC1 (some centres not stated) | µM | 4

* * *

# Study system: Voltage-dependent N-type calcium channel subunit alpha-1B (Homo sapiens, UniProt Q00975)
# Sequence (Q00975 whole entry): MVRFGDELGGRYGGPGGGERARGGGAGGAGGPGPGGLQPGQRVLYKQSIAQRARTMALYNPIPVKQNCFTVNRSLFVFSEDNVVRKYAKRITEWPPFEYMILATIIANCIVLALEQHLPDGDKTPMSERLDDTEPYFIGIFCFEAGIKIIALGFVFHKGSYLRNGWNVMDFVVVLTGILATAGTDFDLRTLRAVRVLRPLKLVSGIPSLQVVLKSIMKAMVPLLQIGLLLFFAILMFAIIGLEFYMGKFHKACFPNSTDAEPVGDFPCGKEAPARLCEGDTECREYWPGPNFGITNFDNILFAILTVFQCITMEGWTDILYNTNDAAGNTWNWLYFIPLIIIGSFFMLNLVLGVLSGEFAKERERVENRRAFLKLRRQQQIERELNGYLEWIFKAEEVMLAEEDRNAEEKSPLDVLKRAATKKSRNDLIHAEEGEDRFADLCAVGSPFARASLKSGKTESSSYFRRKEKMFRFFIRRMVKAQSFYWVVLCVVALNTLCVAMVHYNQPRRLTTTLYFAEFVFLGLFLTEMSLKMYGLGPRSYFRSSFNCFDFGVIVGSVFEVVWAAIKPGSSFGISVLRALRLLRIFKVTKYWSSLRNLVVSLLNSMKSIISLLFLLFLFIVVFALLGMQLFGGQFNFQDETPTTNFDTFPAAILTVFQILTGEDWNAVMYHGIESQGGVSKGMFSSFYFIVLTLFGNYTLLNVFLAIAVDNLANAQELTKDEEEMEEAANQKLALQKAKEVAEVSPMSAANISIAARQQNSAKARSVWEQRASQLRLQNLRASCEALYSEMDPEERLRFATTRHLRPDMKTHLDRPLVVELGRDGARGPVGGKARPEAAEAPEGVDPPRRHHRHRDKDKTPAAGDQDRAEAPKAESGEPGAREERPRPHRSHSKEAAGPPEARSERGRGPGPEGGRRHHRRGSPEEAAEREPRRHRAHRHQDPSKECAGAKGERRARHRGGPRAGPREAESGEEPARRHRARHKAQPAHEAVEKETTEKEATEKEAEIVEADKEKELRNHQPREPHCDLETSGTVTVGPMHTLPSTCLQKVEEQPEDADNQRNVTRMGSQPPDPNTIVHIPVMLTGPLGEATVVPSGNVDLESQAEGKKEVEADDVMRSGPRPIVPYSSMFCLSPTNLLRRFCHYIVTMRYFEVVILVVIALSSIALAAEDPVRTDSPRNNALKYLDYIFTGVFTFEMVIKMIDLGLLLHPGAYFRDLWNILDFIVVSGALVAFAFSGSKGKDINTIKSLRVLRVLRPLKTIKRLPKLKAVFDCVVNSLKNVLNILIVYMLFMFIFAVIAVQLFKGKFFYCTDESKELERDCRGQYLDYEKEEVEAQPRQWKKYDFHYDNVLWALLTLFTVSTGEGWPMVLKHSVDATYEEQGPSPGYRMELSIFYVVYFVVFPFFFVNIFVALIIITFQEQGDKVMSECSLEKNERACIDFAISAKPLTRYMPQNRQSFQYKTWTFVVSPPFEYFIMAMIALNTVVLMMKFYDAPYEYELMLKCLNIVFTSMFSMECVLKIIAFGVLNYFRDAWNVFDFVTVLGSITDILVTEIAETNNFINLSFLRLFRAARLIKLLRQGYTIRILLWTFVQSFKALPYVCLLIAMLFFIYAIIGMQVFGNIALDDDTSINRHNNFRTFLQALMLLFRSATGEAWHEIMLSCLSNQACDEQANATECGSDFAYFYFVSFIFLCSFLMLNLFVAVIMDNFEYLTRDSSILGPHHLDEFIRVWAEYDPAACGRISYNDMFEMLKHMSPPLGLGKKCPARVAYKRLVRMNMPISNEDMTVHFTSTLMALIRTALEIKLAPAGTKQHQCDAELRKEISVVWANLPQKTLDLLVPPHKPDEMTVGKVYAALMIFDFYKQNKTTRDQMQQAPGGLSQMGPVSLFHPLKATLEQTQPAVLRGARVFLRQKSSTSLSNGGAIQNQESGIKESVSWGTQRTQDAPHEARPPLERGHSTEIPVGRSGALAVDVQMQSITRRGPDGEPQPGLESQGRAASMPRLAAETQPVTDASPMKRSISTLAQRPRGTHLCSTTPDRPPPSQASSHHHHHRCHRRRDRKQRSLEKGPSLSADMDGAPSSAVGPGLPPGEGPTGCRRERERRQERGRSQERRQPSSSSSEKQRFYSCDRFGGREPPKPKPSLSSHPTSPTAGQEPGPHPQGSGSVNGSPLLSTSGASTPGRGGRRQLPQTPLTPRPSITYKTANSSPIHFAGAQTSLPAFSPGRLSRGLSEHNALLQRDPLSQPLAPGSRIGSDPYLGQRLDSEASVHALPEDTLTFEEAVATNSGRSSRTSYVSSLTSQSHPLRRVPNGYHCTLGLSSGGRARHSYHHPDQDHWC
# Test details: Inhibition of N-type calcium channels in IMR32 human neuroblastoma cells
Cut-off 2 µM on IC50: below means YES, at or above means NO.

Molecule | Qualitative label
CC(C)=CCN(c1ccc(OCc2ccccc2)cc1)C1CCNCC1 | NO
CC(C)=CCN(c1ccc(OCc2ccccc2)cc1)C1CCCN(C(=O)[C@H](CC(C)C)NC(=O)N2CCCCCC2)C1 (stereo not given in full) | YES
CC(C)C[C@H](NC(=O)N1CCCCCC1)C(=O)N1CCC(N(CCC(C)O)c2ccc(OCc3ccccc3)cc2)CC1 (stereo not given in full) | NO
CC(C)=CCN(C[C@H](C)NC(=O)[C@H](CC(C)C)NC(=O)N1CCCCCC1)c1ccc(OCc2ccccc2)cc1 | YES
CC(C)=CCN(c1ccc(OCc2ccccc2)cc1)C1CCN(C(=O)[C@@H](N)CC(C)C)CC1 | YES

* * *

# Test details: solubility at pH 4
# Format: physicochemical
# Stated conditions: buffer

Cpd smiles | Uom | solubility
CC(C)=CCN(c1ccc(OCc2ccccc2)cc1)C1CCN(C(=O)[C@@H](N)CC(C)C)CC1 | mM | 100

Sourced from ChEMBL document CHEMBL1132688
